In this section we review reported pEC50 values for a set of compounds.
molecular target: human GRP receptors (Homo sapiens, UniProt P30550); assay: IP1 GRPR activity: HTRF IP1-Gq assay in U2OS cells stably expressing human GRP receptors; conditions: 90 minutes incubation, read-out: hIP1 GRPR EC50
Sequence (P30550 whole entry): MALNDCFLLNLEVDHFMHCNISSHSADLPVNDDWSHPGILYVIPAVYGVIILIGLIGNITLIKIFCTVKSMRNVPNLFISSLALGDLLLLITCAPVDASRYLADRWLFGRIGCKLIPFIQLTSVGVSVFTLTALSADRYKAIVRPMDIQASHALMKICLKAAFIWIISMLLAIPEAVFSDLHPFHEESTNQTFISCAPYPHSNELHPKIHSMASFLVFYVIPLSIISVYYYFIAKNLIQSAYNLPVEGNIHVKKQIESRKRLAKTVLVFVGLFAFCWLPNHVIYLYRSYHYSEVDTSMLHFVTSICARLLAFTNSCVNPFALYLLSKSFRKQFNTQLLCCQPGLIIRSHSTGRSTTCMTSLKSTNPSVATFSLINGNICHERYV
pEC50: −log10 of the molar value. Starred links: 1 amine or outer side, 2 acyl side, 3 side chain; linkers in the order of their positions; H or OH if unused. Non-standard residues stand in square brackets, D forms with d. Residues, ends and D or L forms follow the SMILES beside them. *: point of attachment. d(γGlu) = O=C(O)[C@@H](CCC(=O)[*:2])N[*:1]; C18 diacid = O=C(O)CCCCCCCCCCCCCCCCC(=O)*; γGlu = O=C(O)[C@H](CCC(=O)[*:2])N[*:1]; Nle = CCCC[C@H](N)C(=O)O; AEEA = NCCOCCOCC(=O)O; Sar = CNCC(=O)O
Measure name: pEC50

- Compound: "CC(C)C[C@H](NC(=O)[C@H](Cc1c[nH]cn1)NC(=O)[C@@H](C)NC(=O)[C@@H](NC(=O)[C@H](C)NC(=O)[C@H](Cc1c[nH]c2ccccc12)NC(=O)[C@H](Cc1c[nH]cn1)NC(=O)[C@H](CC(N)=O)NC(=O)CNC(=O)COCCOCCNC(=O)COCCOCCNC(=O)CC[C@@H](NC(=O)CCCCCCCCCCCCCCCCC(=O)O)C(=O)O)C(C)C)C(=O)N[C@@H](CCCNC(=N)N)C(N)=O [Peptide 69] ({C18 diacid-d(γGlu)-AEEA-AEEA}-GNHWAV[dA]HLR-NH2)"
  Readout value: "< 5.00"
- Compound: "CCCC[C@H](NC(=O)[C@H](CC(C)C)NC(=O)[C@H](Cc1c[nH]cn1)NC(=O)[C@@H](C)NC(=O)[C@@H](NC(=O)[C@H](C)NC(=O)[C@H](CCCNC(=N)N)NC(=O)[C@H](Cc1c[nH]cn1)NC(=O)[C@H](CC(N)=O)NC(=O)CNC(=O)COCCOCCNC(=O)COCCOCCNC(=O)CC[C@H](NC(=O)CCCCCCCCCCCCCCCCC(=O)O)C(=O)O)C(C)C)C(=O)N(C)CC(N)=O [Peptide 130] ({C18 diacid-γGlu-AEEA-AEEA}-GNHRAV[dA]HL[Nle][Sar]-NH2)"
  Readout value: "< 5.00"
- Compound: "CCCC[C@H](NC(=O)[C@H](CC(C)C)NC(=O)[C@H](Cc1c[nH]cn1)NC(=O)[C@@H](C)NC(=O)[C@@H](NC(=O)[C@H](C)NC(=O)[C@H](Cc1c[nH]cn1)NC(=O)[C@H](Cc1c[nH]cn1)NC(=O)[C@H](CC(N)=O)NC(=O)CNC(=O)COCCOCCNC(=O)COCCOCCNC(=O)CC[C@H](NC(=O)CCCCCCCCCCCCCCCCC(=O)O)C(=O)O)C(C)C)C(N)=O [Peptide 107] ({C18 diacid-γGlu-AEEA-AEEA}-GNHHAV[dA]HL[Nle]-NH2)"
  Readout value: "< 5.00"
